As an illustration, consider measured IC50 for molecules on UniProtKB P13995.
Sequence (P13995 36-350): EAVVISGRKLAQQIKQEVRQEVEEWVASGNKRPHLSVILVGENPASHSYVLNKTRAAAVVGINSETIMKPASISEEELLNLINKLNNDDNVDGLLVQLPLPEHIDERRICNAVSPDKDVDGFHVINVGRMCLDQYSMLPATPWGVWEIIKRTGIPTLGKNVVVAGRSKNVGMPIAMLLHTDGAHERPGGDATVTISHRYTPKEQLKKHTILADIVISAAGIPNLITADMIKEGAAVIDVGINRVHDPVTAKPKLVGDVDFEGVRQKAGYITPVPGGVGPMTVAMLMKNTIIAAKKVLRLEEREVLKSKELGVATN
Where a name gives a salt, the structure may show the parent alone.
Answer format reminder: number followed by unit.

Nc1nc(N)c(CC(=O)Nc2ccc(C(=O)N[C@@H](CCc3nnn[nH]3)C(=O)O)nc2)c(=O)[nH]1	53 nM
CC(C)[C@H](NC(=O)c1ccc(NC(=O)Cc2c(N)nc(N)[nH]c2=O)cn1)C(=O)O	103 nM
Nc1nc(N)c(NC(=O)Nc2ccc(C(=O)N[C@@H](CCCC(=O)O)C(=O)O)nc2)c(=O)[nH]1	32 nM
Nc1nc(N)c(NC(=O)Nc2ccc(C(=O)N[C@@H](CC(=O)O)C(=O)O)nc2)c(=O)[nH]1	195 nM
Nc1nc(N)c(CC(=O)Nc2ccc(C(=O)N[C@@H](CCC(=O)O)C(=O)O)nc2)c(=O)[nH]1 [Example 7, hydrochloride]	154 nM
Nc1nc(N)c(NC(=O)Nc2ccc(C(=O)N[C@H](C(=O)O)C3CCCCC3)nc2)c(=O)[nH]1	17 nM

Given the entry Nc1nc(N)c(CC(=O)Nc2ccc(C(=O)N[C@@H](CCC(=O)O)C(=O)O)nc2-c2ccccc2)c(=O)[nH]1 , report its measured IC50.
65 nM
